Source of measurements: PubChem BioAssay AID1645848

Overview of recorded solubility kinetic for various compounds
Conditions: buffer; pH 7.4; 6.0 h; 150.0 µM

Study these solved cases before continuing.
1. C[S+](=O)([O-])N1CCC(Cn2ccc3c(N4CCOCC4)nc(-c4cccc5[nH]ccc45)cc32)CC1 = < 1 µg/mL
2. Fc1ccc(Nc2nc(-c3ccncc3Cl)nc3ccccc23)cc1F = < 1 µg/mL
3. NC(=O)C1CCN(c2nc(-c3cccnc3)cs2)CC1 = > 43 µg/mL
4. CCc1oc2ccccc2c1C(=O)c1cc(I)c(O)c(I)c1 = > 77 µg/mL
5. O=c1c(-c2ccc(O)cc2)coc2cc(O)cc(O)c12 = 27.3 µg/mL

We next turn to a different compound, shown below.
Item: `Fc1ccc(-c2ccc(Nc3nc(-c4ccncc4)nc4ccccc34)cc2F)cc1` | solubility kinetic: < 1 µg/mL
